System: NCI-H226
Assay: NCI tumour cell line growth inhibition, 48 h
Active and inactive are the calls of the source. Cut-off read from the data, not from the text of the source: active = GI50 up to about 1.1 µM and inactive = higher.

{"compound": "OC/C=C(\\I)CCCOCOCc1ccccc1", "GI50": "27.4 µM (inactive)"}
{"compound": "O=C1Nc2ccccc2/C1=C1/Nc2ccccc2/C1=N/OCCO", "GI50": "> 100 µM (inactive)"}
{"compound": "S=C(NCCc1ccccn1)c1nc[nH]c1C(=S)NCCc1ccccn1", "GI50": "46.8 µM (inactive)"}
{"compound": "Nc1ncnc2c1nc(Cl)n2C1OC2COP(=O)(O)OC2C1O (stereo unspecified)", "GI50": "3.41 µM (inactive)"}
{"compound": "COC(=O)CCCc1ccc2c(c1)CC1(Cc3ccccc3C1)C2", "GI50": "> 100 µM (inactive)"}
{"compound": "C/C(=N\\OCC(O)CNCCSCc1ccccc1)c1ccccc1Cl (stereo unspecified)", "GI50": "17.6 µM (inactive)"}
{"compound": "COc1cc(NS(C)(=O)=O)ccc1Nc1ccnc2ccc3[nH]ccc3c12", "GI50": "18.9 µM (inactive)"}
{"compound": "CN(C)c1ccc(/C=C(\\NC(=O)c2ccccc2)C(=O)Nc2ccccc2C(=O)NN2C(=O)CSC2c2ccc(N(C)C)cc2)cc1 (stereo unspecified)", "GI50": "> 100 µM (inactive)"}
{"compound": "CC12C3CC4C5CC(C(C53)[C@@H]1NCc1ccccc1)C42 (stereo partly specified)", "GI50": "> 100 µM (inactive)"}
{"compound": "CCOC(=O)Cc1csc(N/N=C2\\C(=O)Nc3ccccc32)n1", "GI50": "30.2 µM (inactive)"}
{"compound": "Cc1ccccc1N1C(N)=C(C#N)C(C#N)(C#N)C1c1ccccc1 (stereo unspecified)", "GI50": "20.7 µM (inactive)"}

---

Below: a set of entries, each annotated with reported GI50.
Test system: MDA-N
Test: NCI tumour cell line growth inhibition, 48 h
Calls of active or inactive are those of the source. Rule as the data show it: active = GI50 up to about 1.1 µM and inactive = higher.

{"compound": "C=CCc1cccc2cc(C(=O)Nc3ccc(C)cc3)c(=N)oc12", "GI50": "> 100 µM (inactive)"}
{"compound": "Brc1ccc(C2CC3(c4ccccc4)ON=C(c4ccccc4)N3c3ccccc3S2)cc1 (centres undefined)", "GI50": "> 100 µM (inactive)"}
{"compound": "CCN(CC)CCNc1c2ccccc2nc2cccc([N+](=O)[O-])c12", "GI50": "0.00179 µM (active)"}
{"compound": "CC#C[C@]1(O)CCC2[C@@H]3CCC4=CC(=O)CCC4=C3[C@@H](c3ccc(N(C)C)cc3)C[C@@]21C (some centres undefined)", "GI50": "11.8 µM (inactive)"}
{"compound": "O=C(N/N=C1\\C(=O)Nc2c(Cl)cc(Cl)cc21)C(=O)Nc1cccc(C(F)(F)F)c1", "GI50": "54 µM (inactive)"}
{"compound": "Cc1ccc(C2=Nc3cc(C)c(Cl)cc3S(=O)(=O)NN2)cc1", "GI50": "> 100 µM (inactive)"}
{"compound": "COc1cc(C2c3cc4c(cc3OC(NNC(N)=S)C2C)OCO4)cc(OC)c1OC (centres undefined)", "GI50": "0.084 µM (active)"}
{"compound": "COc1ccc(/C=C2\\C[C@H]3[C@@H]4CCC5=C/C(=N/O)CC[C@]5(C)[C@H]4CC[C@]3(C)\\C2=N\\O)cc1OC", "GI50": "11.6 µM (inactive)"}
{"compound": "O=C(O)c1cccc(/[As]=[As]\\c2cccc(C(=O)O)c2)c1 (centres undefined)", "GI50": "61.1 µM (inactive)"}

---

Tested on: SNB-78
Experiment: NCI tumour cell line growth inhibition, 48 h
Calls of active or inactive are those of the source. Rule as the data show it: active = GI50 up to about 1.1 µM and inactive = higher.
Classes used: T = active, F = inactive

{"compound": "Cc1cc(O)c2c(c1O)C(=O)C13C(=C(O)C4C(O)C1C1C(O)C3C(O)=C3C(=O)c5c(O)cc(C)c(O)c5C(=O)C341)C2=O (stereo unspecified)", "qualitative_label": "T"}
{"compound": "C=C(COC(C)=O)CC(/C=C(\\C)CCC=C(C)C)OC(C)=O (stereo unspecified)", "qualitative_label": "F"}
{"compound": "CC(C)(CN1CCCCC1)C(=O)/C=C/c1ccc(Cl)cc1", "qualitative_label": "F"}
{"compound": "COc1ccc(NC(=O)c2cc(OC)cc(OC)c2)cc1", "qualitative_label": "F"}
{"compound": "CCN(CC)CCNc1c2ccccc2nc2cccc([N+](=O)[O-])c12", "qualitative_label": "T"}
{"compound": "CC(=O)NNc1nc(C)c(C(=O)NNC(=O)C(=O)Nc2c([N+](=O)[O-])ccc(C)c2C)s1", "qualitative_label": "F"}
{"compound": "CN(C)CCNC(=O)c1cc(Cl)cc2cc3ccccc3nc12", "qualitative_label": "F"}
{"compound": "COc1ccccc1/C=C1\\N=C(C)OC1=O", "qualitative_label": "F"}
{"compound": "O=C(CC(=O)C(F)(F)F)c1csc2ccccc12", "qualitative_label": "F"}
{"compound": "C[n+]1ccc(-c2cc[n+](C)cc2)cc1 [PARAQUAT DICHLORIDE]", "qualitative_label": "F"}
{"compound": "Oc1cccc(-c2cccc(O)n2)n1", "qualitative_label": "F"}
{"compound": "COC(=O)C(C(=O)C(=O)NC1=C(Cl)C(=O)c2ccccc2C1=O)c1csc(-n2nc(-c3ccccc3)cc2-c2ccccc2)n1 (stereo unspecified)", "qualitative_label": "F"}
{"compound": "O=C(OCc1ccccc1)OOC(=O)OCc1ccccc1", "qualitative_label": "F"}
{"compound": "CC(=O)Oc1cccc2c1C(=O)C(Br)(Br)CCC2", "qualitative_label": "F"}
{"compound": "c1ccc2c(c1)[Se]c1ccccc1[Se]2", "qualitative_label": "F"}
{"compound": "C[Si](C)(C)/C(I)=C/CO", "qualitative_label": "F"}
{"compound": "CCC(C)C(=O)O[C@H]1C(=O)O[C@@H]2C[C@H]3C(C)=CC(=O)[C@@H](O)[C@]3(C)[C@H]3[C@@H](O)[C@H](O)[C@@]4(C)OC[C@]32[C@@H]14 (stereo partly specified)", "qualitative_label": "T"}
{"compound": "COC(=O)C1C(O)C(C)C(O)C(C)(O)/C=C\\C=C(C)C(=O)Nc2c(C)c(OC(C)=O)c3c(c2O)C(=O)C(C)=C2OCOC(=C23)C(C)=CC(C)(O)C(O)C(C)C1OC(C)=O (stereo unspecified)", "qualitative_label": "F"}
{"compound": "COc1cc2cnc3c4cc(OC)c(OC(C)C)cc4ccc3c2cc1OC", "qualitative_label": "F"}
{"compound": "C[n+]1[se]c2ccccc2c1Cl", "qualitative_label": "F"}
{"compound": "N#Cc1ccc(Oc2ccccc2)cc1C#N", "qualitative_label": "F"}
{"compound": "Cc1ccc(S(=O)(=O)OC2CC=CC2)cc1", "qualitative_label": "F"}
{"compound": "COC(=O)C(/C(=N/NC(N)=S)C(=O)Nc1ccccc1[N+](=O)[O-])c1cnc2ccccc2n1 (stereo unspecified)", "qualitative_label": "F"}
{"compound": "CC1O[C@@H]2CCCCC(=O)[C@]2(C)[C@H]1C (stereo partly specified)", "qualitative_label": "F"}
{"compound": "CCCCCCCCCCC(O)C1CCC(C(O)CCC(O)C2CCC(CCCCCCC[C@H](O)CC3=C[C@@H](C)OC3=O)O2)O1 (stereo partly specified)", "qualitative_label": "F"}
{"compound": "CCOC(=O)CC[C@@H](NC(=O)c1ccc(N[C@@H]2c3cc4c(cc3C(c3cc(OC)c(O)c(OC)c3)C3C(=O)OC[C@@H]32)OCO4)cc1)C(=O)OCC (stereo partly specified)", "qualitative_label": "T"}
{"compound": "O=C(NC(=O)c1ccccc1[N+](=O)[O-])Nc1ccc(Oc2ncc(Cl)cn2)c(C(F)(F)F)c1", "qualitative_label": "T"}
{"compound": "C/C(=N/NS(=O)(=O)c1ccccc1)c1cccc[n+]1[O-]", "qualitative_label": "F"}
{"compound": "O=C1Nc2nc3ccccc3n2N=C2CCCC12 (stereo unspecified)", "qualitative_label": "F"}
{"compound": "CCOC(=N)CC(=O)c1ccccc1", "qualitative_label": "F"}
{"compound": "O=CN/C=C/c1cc(O)ccc1O", "qualitative_label": "F"}
{"compound": "COC(=O)C(=O)OC1(C(C)=O)CC2(c3ccccc3)OC1(c1ccccc1)c1ccccc12 (stereo unspecified)", "qualitative_label": "F"}
{"compound": "O=C1c2ccccc2N2Oc3ccccc3C12c1ccccc1 (stereo unspecified)", "qualitative_label": "F"}
{"compound": "C[S+](C)CC1OC(n2cnc3c(N)ncnc32)C(O)C1O (stereo unspecified)", "qualitative_label": "F"}
{"compound": "COc1cccc(SSc2cccc(OC)c2C(=O)O)c1C(=O)O", "qualitative_label": "F"}
{"compound": "Cc1ccc(NC(=O)/C(=N/NC(=O)CC#N)C2C(=O)N(c3ccccc3)N=C2N)cc1C (stereo unspecified)", "qualitative_label": "F"}
